Data provenance: patent US20250152746A1

Tested on: PCSK9 gene
Method: PCSK9 gRNA/SpCas9 editing in primary cynomolgus hepatocytes (Tables 2, 22)
Format: cell-based, cynomolgus monkey
Stated Conditions: 500 ng/RNA/mL; SpCas9 mRNA MS002 1:1 by weight
In the oligonucleotide strings, read from the 5' end, every base follows the letter of its sugar. An asterisk marks phosphorothioate; unmarked linkages are phosphodiester. Other units and linkages are bracketed, terminal groups are in braces. A string of capitals states the bases alone. m = 2'-O-methyl; r = 2'-OH (RNA)
Attribute Measured: Cyno Primary Hepatocyte Editing % 500 (%)
All answers are understood in %, so give the number only.

Q: Retrieve Cyno Primary Hepatocyte Editing % 500 measured for GA216: PCSK9 gRNA; protospacer CCGGGATGCCGGCGTGGCCA (SEQ ID NO: 210) (nucleic acid, sugars from the 5' end m3 r94 m3, linkages s3 o93 s3 (s phosphorothioate, o phosphodiester), T or U not given here) guide: CCGGGAUGCCGGCGUGGCCAGUUUUAGAGCUAGAAAUAGCAAGUUAAAAUAAGGCUAGUCCGUUAUCAACUUGAAAAAGUGGCACCGAGUCGGUGCUUUU and print it.
Ans: 4.97

Q: Retrieve Cyno Primary Hepatocyte Editing % 500 measured for GA165: PCSK9 gRNA; protospacer CCGTCAGCTCCAGGCGGTCC (SEQ ID NO: 159) (nucleic acid, sugars from the 5' end m3 r94 m3, linkages s3 o93 s3 (s phosphorothioate, o phosphodiester), T or U not given here) guide: CCGUCAGCUCCAGGCGGUCCGUUUUAGAGCUAGAAAUAGCAAGUUAAAAUAAGGCUAGUCCGUUAUCAACUUGAAAAAGUGGCACCGAGUCGGUGCUUUU and print it.
Ans: 18.00

Q: Retrieve Cyno Primary Hepatocyte Editing % 500 measured for GA234: PCSK9 gRNA; protospacer CGCCTGCCAGCGCCTGGCGA (SEQ ID NO: 252) (nucleic acid) guide: mC*mG*mC*rCrUrGrCrCrArGrCrGrCrCrUrGrGrCrGrArGrUrUrUrUrArGrArGrCrUrArGrArArArUrArGrCrArArGrUrUrArArArArUrArArGrGrCrUrArGrUrCrCrGrUrUrArUrCrArArCrUrUrGrArArArArArGrUrGrGrCrArCrCrGrArGrUrCrGrGrUrGrCrU*mU*mU*mU and print it.
Ans: 1.53

Q: Retrieve Cyno Primary Hepatocyte Editing % 500 measured for GA194: PCSK9 gRNA; protospacer GTCGACATGGGGCAACTTCA (SEQ ID NO: 188) (nucleic acid, sugars from the 5' end m3 r94 m3, linkages s3 o93 s3 (s phosphorothioate, o phosphodiester), T or U not given here) guide: GUCGACAUGGGGCAACUUCAGUUUUAGAGCUAGAAAUAGCAAGUUAAAAUAAGGCUAGUCCGUUAUCAACUUGAAAAAGUGGCACCGAGUCGGUGCUUUU and print it.
Ans: 9.49

Q: Retrieve Cyno Primary Hepatocyte Editing % 500 measured for GA246: PCSK9 gRNA; protospacer GCCAGCGCCTGGCGAGGGCT (SEQ ID NO: 239) (nucleic acid, sugars from the 5' end m3 r94 m3, linkages s3 o93 s3 (s phosphorothioate, o phosphodiester), T or U not given here) guide: GCCAGCGCCUGGCGAGGGCUGUUUUAGAGCUAGAAAUAGCAAGUUAAAAUAAGGCUAGUCCGUUAUCAACUUGAAAAAGUGGCACCGAGUCGGUGCUUUU and print it.
Ans: 5.78

Q: Retrieve Cyno Primary Hepatocyte Editing % 500 measured for GA206: PCSK9 gRNA; protospacer CCGGTGGTCACTCTGTATGC (SEQ ID NO: 200) (nucleic acid, sugars from the 5' end m3 r94 m3, linkages s3 o93 s3 (s phosphorothioate, o phosphodiester), T or U not given here) guide: CCGGUGGUCACUCUGUAUGCGUUUUAGAGCUAGAAAUAGCAAGUUAAAAUAAGGCUAGUCCGUUAUCAACUUGAAAAAGUGGCACCGAGUCGGUGCUUUU and print it.
Ans: 2.73

Q: Retrieve Cyno Primary Hepatocyte Editing % 500 measured for GA228: PCSK9 gRNA; protospacer CGGCTGTACCCACCCGCCAG (SEQ ID NO: 222) (nucleic acid, sugars from the 5' end m3 r94 m3, linkages s3 o93 s3 (s phosphorothioate, o phosphodiester), T or U not given here) guide: CGGCUGUACCCACCCGCCAGGUUUUAGAGCUAGAAAUAGCAAGUUAAAAUAAGGCUAGUCCGUUAUCAACUUGAAAAAGUGGCACCGAGUCGGUGCUUUU and print it.
Ans: 7.89

Q: Retrieve Cyno Primary Hepatocyte Editing % 500 measured for GA233: PCSK9 gRNA; protospacer GCGGCTGTACCCACCCGCCA (SEQ ID NO: 227) (nucleic acid, sugars from the 5' end m3 r94 m3, linkages s3 o93 s3 (s phosphorothioate, o phosphodiester), T or U not given here) guide: GCGGCUGUACCCACCCGCCAGUUUUAGAGCUAGAAAUAGCAAGUUAAAAUAAGGCUAGUCCGUUAUCAACUUGAAAAAGUGGCACCGAGUCGGUGCUUUU and print it.
Ans: 10.84

Q: Retrieve Cyno Primary Hepatocyte Editing % 500 measured for GA174: PCSK9 gRNA; protospacer GGATCTTGGTGAGGTATCCC (SEQ ID NO: 168) (nucleic acid, sugars from the 5' end m3 r94 m3, linkages s3 o93 s3 (s phosphorothioate, o phosphodiester), T or U not given here) guide: GGAUCUUGGUGAGGUAUCCCGUUUUAGAGCUAGAAAUAGCAAGUUAAAAUAAGGCUAGUCCGUUAUCAACUUGAAAAAGUGGCACCGAGUCGGUGCUUUU and print it.
Ans: 4.88

Q: Retrieve Cyno Primary Hepatocyte Editing % 500 measured for GA189: PCSK9 gRNA; protospacer TCCTCGATGTAGTCGACATG (SEQ ID NO: 183) (nucleic acid) guide: mU*mC*mC*rUrCrGrArUrGrUrArGrUrCrGrArCrArUrGrGrUrUrUrUrArGrArGrCrUrArGrArArArUrArGrCrArArGrUrUrArArArArUrArArGrGrCrUrArGrUrCrCrGrUrUrArUrCrArArCrUrUrGrArArArArArGrUrGrGrCrArCrCrGrArGrUrCrGrGrUrGrCrU*mU*mU*mU and print it.
Ans: 15.58

Q: Retrieve Cyno Primary Hepatocyte Editing % 500 measured for GA220: PCSK9 gRNA; protospacer GTGCTCAACTGCCAAGGGAA (SEQ ID NO: 214) (nucleic acid, sugars from the 5' end m3 r94 m3, linkages s3 o93 s3 (s phosphorothioate, o phosphodiester), T or U not given here) guide: GUGCUCAACUGCCAAGGGAAGUUUUAGAGCUAGAAAUAGCAAGUUAAAAUAAGGCUAGUCCGUUAUCAACUUGAAAAAGUGGCACCGAGUCGGUGCUUUU and print it.
Ans: 12.39
